System: human colon cancer HCT116 cell line
Test: Cell growth inhibition 2, HCT116
Type: cell-based
Conditions: HCT-116
Reported IC50 values for a set of compounds

| COMPOUND | IC50 / nM |
| --- | --- |
| CNc1cc(F)c(C#Cc2cn([C@@H]3O[C@H](CNS(N)(=O)=O)[C@@H](O)[C@H]3O)c3ncnc(N)c23)c(F)c1 [Reference Example 25] | 6.4 |
| NS(=O)(=O)OC[C@@H]1C[C@@H](n2ccc3c(N[C@H]4CCc5ccccc54)ncnc32)CC1O (stereo partly shown) | 89 |
| CN1CCOc2c1ccc(F)c2C#Cc1cn([C@@H]2C[C@H](CNS(N)(=O)=O)[C@@H](O)[C@H]2O)c2ncnc(N)c12 [Reference Example 122] | 18 |
| CSc1cccc(F)c1C#Cc1cn([C@@H]2C=C(CNS(N)(=O)=O)[C@@H](O)[C@H]2O)c2ncnc(N)c12 [Reference Example 130] | 12 |
| Nc1ncnc2c1c(C#Cc1c(F)cccc1F)cn2[C@@H]1O[C@H](CNS(N)(=O)=O)[C@@H](O)[C@H]1O [Reference Example 1] | 16 |
| Nc1ncnc2c1c(C#Cc1c(F)cc(N3CC[C@@H](F)C3)cc1F)cn2[C@@H]1O[C@H](CNS(N)(=O)=O)[C@@H](O)[C@H]1O [Reference Example 29] | 14 |
| CN1CCOc2c1ccc(F)c2C#Cc1cn([C@@H]2O[C@H](CNS(N)(=O)=O)[C@@H](O)[C@H]2O)c2ncnc(N)c12 [Reference Example 64] | 14 |

###

System: human multiple myeloma U266B1 cell line
Assay: Cell growth inhibition 2, U266B1
Assay type: cell-based

| COMPOUND | IC50, nM |
| --- | --- |
| Nc1ncnc2c1c(C#Cc1c(F)cccc1F)cn2[C@@H]1O[C@H](CNS(N)(=O)=O)[C@@H](O)[C@H]1O [Reference Example 1] | 110 |
| CNc1cc(F)c(C#Cc2cn([C@@H]3O[C@H](CNS(N)(=O)=O)[C@@H](O)[C@H]3O)c3ncnc(N)c23)c(F)c1 [Reference Example 25] | 220 |
| Nc1ncnc2c1c(C#Cc1c(F)cc(N3CC[C@@H](F)C3)cc1F)cn2[C@@H]1O[C@H](CNS(N)(=O)=O)[C@@H](O)[C@H]1O [Reference Example 29] | 420 |
| CSc1cccc(F)c1C#Cc1cn([C@@H]2C=C(CNS(N)(=O)=O)[C@@H](O)[C@H]2O)c2ncnc(N)c12 [Reference Example 130] | 24 |
| NS(=O)(=O)OC[C@@H]1C[C@@H](n2ccc3c(N[C@H]4CCc5ccccc54)ncnc32)CC1O (stereo partly drawn) [Comp. Example] | 1400 |
| CN1CCOc2c1ccc(F)c2C#Cc1cn([C@@H]2C[C@H](CNS(N)(=O)=O)[C@@H](O)[C@H]2O)c2ncnc(N)c12 [Reference Example 122] | 270 |

###

Test system: human acute T lymphoblastic leukemia CCRF-CEM cell lines
Assay: Cell growth inhibition 1 (CellTiter-Glo)
Format: cell-based
Details: culture with test compound 72 hours
PARAMETER: IC50

| COMPOUND | RESULT |
| --- | --- |
| Nc1ncnc2c1c(C#Cc1c(F)cccc1Cl)cn2[C@@H]1O[C@H](CNS(N)(=O)=O)[C@@H](O)[C@H]1O [Reference Example 73] | 71 nM |
| Nc1ncnc2c1c(C#CCc1c(F)cccc1F)cn2[C@@H]1O[C@H](CNS(N)(=O)=O)[C@@H](O)[C@H]1O [Reference Example 31] | 600 nM |
| Nc1ncnc2c1c(C#CCc1ccccc1F)cn2[C@@H]1O[C@H](CNS(N)(=O)=O)[C@@H](O)[C@H]1O [Reference Example 36] | 250 nM |
| Nc1ncnc2c1c(C#Cc1c(F)cc(N3CCC[C@@H](O)C3)cc1F)cn2[C@@H]1O[C@H](CNS(N)(=O)=O)[C@@H](O)[C@H]1O [Reference Example 40] | 19 nM |
| Nc1ncnc2c1c(C#Cc1c(F)cccc1F)cn2[C@@H]1O[C@H](COS(N)(=O)=O)[C@@H](O)[C@H]1O [Reference Example 132] | 1.8 nM |
| CCOc1cc(F)cc(F)c1C#Cc1cn([C@@H]2O[C@H](CNS(N)(=O)=O)[C@@H](O)[C@H]2O)c2ncnc(N)c12 [Reference Example 35] | 2 nM |

Hello, the source for this data is patent US20190010158A1, in case you need it.
